assay_system: hGLP-1R (Homo sapiens)
Sequence (P43220 24-463): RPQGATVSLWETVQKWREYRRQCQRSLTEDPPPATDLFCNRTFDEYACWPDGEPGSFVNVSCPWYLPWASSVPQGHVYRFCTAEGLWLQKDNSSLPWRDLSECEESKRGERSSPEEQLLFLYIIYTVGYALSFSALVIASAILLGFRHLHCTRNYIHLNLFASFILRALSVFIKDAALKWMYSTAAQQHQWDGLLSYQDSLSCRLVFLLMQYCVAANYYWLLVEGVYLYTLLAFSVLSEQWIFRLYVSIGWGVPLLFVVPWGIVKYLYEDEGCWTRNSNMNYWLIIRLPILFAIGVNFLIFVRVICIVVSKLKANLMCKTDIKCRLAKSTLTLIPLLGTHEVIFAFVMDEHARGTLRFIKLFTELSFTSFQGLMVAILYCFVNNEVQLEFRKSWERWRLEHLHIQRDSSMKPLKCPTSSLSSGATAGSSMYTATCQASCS
test: Functional cAMP activation in the presence of 0.1% casein (no HSA);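 further: intracellular cAMP rise after 30 min at 37 °C read by HTRF, normalized between buffer only (0%) and maximal control ligand (100%), four-parameter variable-slope fit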
Type: cell-based
assay_setup: in the presence of 0.1% casein (no HSA); geometric mean; read-out: Relative cAMP EC50, hGLP-1R
Starred links: 1 amine or outer side, 2 acyl side, 3 side chain; linkers in the order of their positions; H or OH if unused. Non-standard residues stand in square brackets, D forms with d. Groups on a side chain read outwards from the residue. *: point of attachment. C20 diacid = O=C(O)CCCCCCCCCCCCCCCCCCC(=O)*; C18 diacid = O=C(O)CCCCCCCCCCCCCCCCC(=O)*; Phe(4-CN) = N#Cc1ccc(C[C@H](N)C(=O)O)cc1; αMePhe(2-F) = C[C@](N)(Cc1ccccc1F)C(=O)O; γGlu = O=C(O)[C@H](CCC(=O)[*:2])N[*:1]; 4Pal = N[C@@H](Cc1ccncc1)C(=O)O; αMeL = CC(C)C[C@](C)(N)C(=O)O; Orn = NCCC[C@H](N)C(=O)O; AEEA = NCCOCCOCC(=O)O; Aib = CC(C)(N)C(=O)O
readout_type: pEC50
pEC50 field: float, defined as -log10 of concentration (mol/L).

Please report the recorded pEC50 for H-Y[Aib]QGTFTSDYSI[αMeL]LDKK([AEEA-AEEA-γGlu-C20 diacid])AA[Aib]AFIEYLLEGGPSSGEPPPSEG-NH2 [Example 294] .
8.67

Ok, now H-Y[Aib]QGTFTSDFS[Orn][αMeL]LDKK([AEEA-γGlu-C18 diacid])AQ[Aib]AFIEYLLE[dA]GPSSGAPPPSG[4Pal]-NH2 [Example 211]
8.91

Ok, now H-Y[Aib]QGT[αMePhe(2-F)]TSD[Phe(4-CN)]SKLLDKIAQK([AEEA-γGlu-C20 diacid])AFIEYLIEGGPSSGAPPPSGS-NH2 [Example 363]
8.83

###

assay_system: hGIPR (Homo sapiens)
Sequence (P48546 22-466): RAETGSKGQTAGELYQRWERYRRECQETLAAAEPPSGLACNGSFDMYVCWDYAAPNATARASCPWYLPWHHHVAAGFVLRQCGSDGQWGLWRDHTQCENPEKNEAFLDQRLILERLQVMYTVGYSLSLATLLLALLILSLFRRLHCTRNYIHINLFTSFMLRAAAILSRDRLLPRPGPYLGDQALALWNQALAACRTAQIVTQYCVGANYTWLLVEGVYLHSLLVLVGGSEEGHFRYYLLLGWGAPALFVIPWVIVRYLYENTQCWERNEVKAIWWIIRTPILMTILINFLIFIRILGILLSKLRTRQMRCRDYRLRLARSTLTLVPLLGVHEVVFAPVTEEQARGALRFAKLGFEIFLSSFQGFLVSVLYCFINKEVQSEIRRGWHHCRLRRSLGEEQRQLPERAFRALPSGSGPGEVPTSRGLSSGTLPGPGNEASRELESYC
test: Functional cAMP activity in the presence of 1% HSA
Type: cell-based
assay_setup: read-out: cAMP Rel EC50, hGIPR
Starred links: 1 amine or outer side, 2 acyl side, 3 side chain; linkers in the order of their positions; H or OH if unused. Non-standard residues stand in square brackets, D forms with d. Groups on a side chain read outwards from the residue. *: point of attachment. C18 diacid = O=C(O)CCCCCCCCCCCCCCCCC(=O)*; αMePhe(2-F) = C[C@](N)(Cc1ccccc1F)C(=O)O; γGlu = O=C(O)[C@H](CCC(=O)[*:2])N[*:1]; αMe4Pal = C[C@](N)(Cc1ccncc1)C(=O)O; αMeY = C[C@](N)(Cc1ccc(O)cc1)C(=O)O; 4Pal = N[C@@H](Cc1ccncc1)C(=O)O; αMeL = CC(C)C[C@](C)(N)C(=O)O; αMeS = C[C@](N)(CO)C(=O)O; Orn = NCCC[C@H](N)C(=O)O; AEEA = NCCOCCOCC(=O)O; Aib = CC(C)(N)C(=O)O
readout_type: EC50

Consider the worked cases shown below.
Please report the recorded EC50 for H-Y[Aib]QGT[αMePhe(2-F)]TSD[4Pal][αMeS]I[αMeL]LD[Orn]K([AEEA-γGlu-C18 diacid])AQ[αMe4Pal]EFI[dE][αMeY]LIEGGPSSGAPPPGGE-NH2 [Example 1144] .
0.72 nM

Ok, now H-Y[Aib]QGTFTSD[4Pal]SQ[αMeL]LDKK([AEEA-γGlu-C18 diacid])AQ[αMe4Pal]AFIEYLIE[Aib]GESSGAPPPSGE-NH2 [Example 227]
39.7 nM

Then this substance:
Please report the recorded EC50 for H-Y[Aib]QGTFTSDFS[Orn][αMeL]LDKK([AEEA-γGlu-C18 diacid])AQ[Aib]AFIEYLLE[dA]GPSS[Aib]APPPSGT-NH2 [Example 214] .
15.1 nM

Value source: patent US20240270821A1
